target: T1, hIL36R-ECD hFc recombinant protein (human); experiment: ELISA of hybridoma culture supernatant on hIL-36R
T1 construct: also called hIL-36R extracellular region with human antibody heavy chain Fc
T1 sequence (chain, as listed by the source limits assumed): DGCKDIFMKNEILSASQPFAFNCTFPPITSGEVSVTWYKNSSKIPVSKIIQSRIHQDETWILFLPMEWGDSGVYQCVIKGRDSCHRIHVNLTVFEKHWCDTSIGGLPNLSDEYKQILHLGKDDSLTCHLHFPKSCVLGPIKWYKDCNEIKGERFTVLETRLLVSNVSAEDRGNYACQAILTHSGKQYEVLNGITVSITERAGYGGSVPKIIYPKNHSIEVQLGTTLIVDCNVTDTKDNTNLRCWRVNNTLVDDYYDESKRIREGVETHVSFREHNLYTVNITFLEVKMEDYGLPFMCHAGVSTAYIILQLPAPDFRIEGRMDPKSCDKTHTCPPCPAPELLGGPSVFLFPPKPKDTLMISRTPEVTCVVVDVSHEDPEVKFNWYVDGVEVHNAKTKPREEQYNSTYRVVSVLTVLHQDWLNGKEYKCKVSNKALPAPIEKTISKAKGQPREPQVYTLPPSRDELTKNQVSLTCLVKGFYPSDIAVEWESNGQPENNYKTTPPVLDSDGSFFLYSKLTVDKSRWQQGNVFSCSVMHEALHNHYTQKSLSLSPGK
ENDPOINT_LABEL: binding result

mouse antibody 6G10 (hybridoma clone 6G10) (antibody, V domains shown, Mouse hybridoma antibody tested as culture supernatant) VH: EVMLVESGGGLVKPGGSLKLSCAASGITFSRFAMSWIRQTPEKRLEWVATISSGDMYTYYPDSVKGRFTISRDNANNTLYLQMRSLRSEDTAMYYCAIMITTGEHAYWGQGTLVTVSA VL: EIKMTQSPSSLSASLGDTITITCRASQDISVWLTWYQQKPGNIPKLLIYKASNLHTGVPPRFSGSGSGTDFTFTISSLQPEDITTYYCLQSQSYPWTFGGGTKLEIK; binds
